Ref: the nanobody polyreactivity screen of Harvey et al. (2022)

- PROCEDURE DETAILS: yeast display, Sf9 membrane polyspecificity reagent, FACS + sequencing; frameworks hold sequencing errors
VALUE TYPE: polyreactivity (PSR sort gate)

Would you please look over these solved cases?
QUERY SEQUENCE	polyreactivity (PSR sort gate)
QVQLVESGGGLVQAGGSLRLTCAASGRIFTVYAMGWYRQAPGKERELVAAIDFSDGTTYYADSVKGRFTISRDNAKNTVYLQMNSLKPEDTAVYYCAAEGGSALDDDYWGQGTQVTVSS	high polyreactivity
QVQLVESGGGLVQAGGSLRLSCAASGSIFKYNDMGWYRQAPGKERELVAAIRLGGGSTSYADSVKGRFTISRDNAKNTVYLQMNSLKPEDTAVYYCAAEINVGWLGSYDYWGQGTQVTVSS	low polyreactivity
QVQLVESGGGLVQAGGSLRLSCAASGSTFGGYTMGWYRQAPGKERELVAAITSRGGTTYYADSVKGRFTISRDNAKNTVYLQMNSLKPEDTAVYYCNRVSRYFYGFYWGQGTQVTVSS	high polyreactivity
QVQLVESVGGLVQAGGSLRLSCSASGSIFWYNAMGWYRQAPGKERELVAAISRGGSTKYADSVKGRFTISRDNAKNTVYLQMNSLKPEDTAVYYCAARYYRSSQGWTYDYWGKGTQVTVSS	low polyreactivity
QVQLVDSGGGLVQAGGSLRLSCAASGLIFKLNAMGWYRQAPGKERELVAAIRASTGSTYYADSVKGRFTISRDNAKNTVYLQMNSLKPEDTADYYCAVRLRWYFFLMDYWGQGTQVTVSS	high polyreactivity
QVQLVESGGGLVQAGGSLRLSCAASGSIFRPYAMGWYRQAPGKERELVAAISDSGGSTYYADSVKGRFTISRDNAKNTVYLQMNSLKPEDTAVYYCNAYSVWYYLASVLEVDYWGQGTQVTVSS	low polyreactivity
QVQLVESGGGLVQAGGSLRLSCAASGRIFTGNVMGWYRQAPGKERELVAAISVSGGRTYYADSVKGRFTISRDNAKNNVYLQMNSLKPEDTAVYYCNARFSRVWYGGDYWGQGTQVTVSS	high polyreactivity
QVQLVESGGGLVQAGGSLRLSSAASGITFYVYAKGRYRQAPGKERELVAAISGSGGNTYYADSVKGRFTISRDNAKNTVYLQMNSLKPEDTPVYYFNADDHSPYYGDLDYWGQGTQVSVSS	low polyreactivity
QVQLVESGGGLVQAGGSLRISCAASGNIFGVYAMGWYRQAPGKERELVATITTGGSTYYADSVKGRFTISRDNAKNTVYLQMNSLKPEDTAVYYCAADVGGGNYVYYGNDYDDGYWGQGTQVTVSS	low polyreactivity
QVQLVESGGGLVQAGASLRLSCAASGRNFHTYGMGWYRQAPGKESELVAAITWTGGSTYYADSVKGRFTISRDNAKNTVYLQMNSLKPEDTAVYYCAADYPRDIIGSMDYWGQGTQVSVSS	low polyreactivity

What value of polyreactivity (PSR sort gate) has been recorded for this entry: "QVQLVESGGGLVQAGGSLRLSCAASGFTFTRYAMGWYRQAPGKERELVAAISRRGGSTYYADSVKGRFTISRDNAKNTVYLQMNSLKPEDTAVYYCAKDAGSRTVREFGYWGQGTQVTVSS"
high polyreactivity

GET /values?readout=polyreactivity (PSR sort gate)&item= "QVQLVESGGGLVQAGGSLRLSCAASGSIFFLYARGWYRQAPGKERELVAAISRSGGNTYYADSVKGRFTISRDNAKNSVYLQMNSLKPEDTAVYYCAADGVHRGGRGGYWGQGTQVTVSS"
high polyreactivity

// lookup polyreactivity (PSR sort gate) for "QVQLVESGGGLVQAGGSLRLSCAASGFTFWDYAMGWYRQAPGKERELVAAISDNDGSTDYADSVKGRFTISRDNAKNTVYLQMNSLKPEDTAVYYCNAEIEMPSKEGDYWGQGTQVTVSS"
low polyreactivity

Look up polyreactivity (PSR sort gate): "QVQLVESGGGLVQAGGSLRLSCAASGFTFRRYAMGWYRQAPGKERELVASISWTGGSTHYADSVKGRFTISRDNAKNTVYLQMNSLKPEDSAVYYSNTVWYYLRSFNIDHYYDYWGQGTQVTVSS"
high polyreactivity

Fill in the blank: the reported polyreactivity (PSR sort gate) of "QVQLVESGGGLVQAGGSLRLSCAASGFIFGNYALGWYRQAPWKERELVAGISGTGGSTYYADSVKGRFTISRDNAKNTVYLQMNSLKPEDTAVYYCAARIFKRQSFDYWGQGTQVTVSS" is ____.
high polyreactivity

So what does the record say about polyreactivity (PSR sort gate) for "QVQLVESGGGLVQAGGRLRLSCAASGFIFKGYAKGWYRQAPGKERELVAAISYSGGNTYYADSVKGRFTISRDNAKNTVYLQMNSLKPEDTAVYYCDVRKRKVLGMYYWGQGTQVTVSS" ?
high polyreactivity

Recorded polyreactivity (PSR sort gate) of "QVQLVESGGGLVQAGGSLRLSCAASGRNFYFYAMGWYRQAPGKEREFVATISSTGGSTYYADSVKGRFTISRDNAKNTVYLQMNSLKPEDTAVYYCAVRGWYPGFRYDYWGQGTQVTVSS" , please.
low polyreactivity
